Tested on: Geobacillus stearothermophilus
Experiment: Antibacterial activity against Bacillus stearothermophilus ATTC 12980 assessed as growth inhibition at 30 degC after 24 hrs by liquid broth dilution method
Assay type: functional
Details: ATTC 12980, 24 h
value_type: MIC (mg/L)

[I] CCCCCCCCCCCCOCCCCOC[C@H]1O[C@@H]2OC(C)(C)O[C@@H]2[C@H]2OC(C)(C)O[C@H]21
[II] O=C(N[C@H](CO)[C@H](O)c1ccc([N+](=O)[O-])cc1)C(Cl)Cl [CHLORAMPHENICOL]
API: POST /compare with I and II ; response names the item with higher MIC. Your answer should be the label attached to the chosen record.
I

====

System: Pseudomonas aeruginosa
Assay: Antibacterial activity against Pseudomonas aeruginosa CIP A22 assessed as growth inhibition at 30 degC after 24 hrs by liquid broth dilution method
Type: functional
Conditions: CIP A22, 24 h
value_type: MIC (µg/mL)

[a] CCCCCCCCOc1ccc(OC[C@H]2O[C@@H]3OC(C)(C)O[C@@H]3[C@H]3OC(C)(C)O[C@H]32)cc1
[b] CCCCCCCCCCCCOCCCCOC[C@H]1O[C@@H]2OC(C)(C)O[C@@H]2[C@H]2OC(C)(C)O[C@H]21
Smaller MIC value, a vs b ? Your answer should be the label attached to the chosen record.
b
(b: 62.5 µg/mL, a: 125 µg/mL)

====

Tested on: Mycolicibacterium smegmatis
Test: Antibacterial activity against Mycobacterium smegmatis CIP 73.26 assessed as growth inhibition at 37 degC after 24 hrs by liquid broth dilution method
Type: functional
Conditions: CIP 73.26, 24 h
value_type: MIC (µg/mL)

Study these solved cases before continuing.
CCCCCCCCCCCCOc1ccc(OC[C@H]2O[C@@H]3OC(C)(C)O[C@@H]3[C@H]3OC(C)(C)O[C@H]32)cc1 : 62.5
CCCCCCCCOCC#CCOC[C@H]1O[C@H](O)[C@H](O)[C@@H](O)[C@H]1O : 62.5
CCCCCCCCCCCCOc1ccc(OC[C@H]2O[C@H](O)[C@H](O)[C@@H](O)[C@H]2O)cc1 : 62.5
CCCCCCCCCCCCOCC#CCOC[C@H]1O[C@H](O)[C@H](O)[C@@H](O)[C@H]1O : 62.5
CCCCCCCCOc1ccc(OC[C@H]2O[C@H](O)[C@H](O)[C@@H](O)[C@H]2O)cc1 : 62.5

[P] CCCCCCCCOCCCCOC[C@H]1O[C@H](O)[C@H](O)[C@@H](O)[C@H]1O
[Q] O=C(N[C@H](CO)[C@H](O)c1ccc([N+](=O)[O-])cc1)C(Cl)Cl
[R] CCCCCCCCCCCCOCCCCOC[C@H]1O[C@@H]2OC(C)(C)O[C@@H]2[C@H]2OC(C)(C)O[C@H]21
List by increasing MIC. Your answer should be the labels, listed in the requested order.
Q, R, P

====

Assay: Critical micelle concentration of the compound by wilhelmy method
Type: physicochemical
value_type: CMC (mmol/L)

CCCCCCCCCCCCOCCCCOC[C@H]1O[C@H](O)[C@H](O)[C@@H](O)[C@H]1O : 0.023
CCCCCCCCOCC#CCOC[C@H]1O[C@H](O)[C@H](O)[C@@H](O)[C@H]1O : 0.06
CCCCCCCCCCCCOc1ccc(OC[C@H]2O[C@H](O)[C@H](O)[C@@H](O)[C@H]2O)cc1 : 3.1
CCCCCCCCOCCCCOC[C@H]1O[C@H](O)[C@H](O)[C@@H](O)[C@H]1O : 0.3

[1] CCCCCCCCOC[C@H]1O[C@H](O)[C@H](O)[C@@H](O)[C@H]1O
[2] CCCCCCCCCCCCOCC#CCOC[C@H]1O[C@H](O)[C@H](O)[C@@H](O)[C@H]1O
API: POST /compare with 1 and 2 ; response names the item with higher CMC. Your answer should be the label attached to the chosen record.
1
